# System: HMLE_sh_eGFP viability, CellTiter-Glo luminescence, 72 h
# test.protocol: cytotoxicity in HMLE control line with eGFP shRNA, dose response, counter-screen for HMLE_sh_ECad selective toxicity project, cell-based, HMLE_sh_eGFP, luminescence (AID 463074);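 note: counterscreen control line to flag general toxicity for the HMLE_sh_ECad screen; potency for loss of viability as luminescence drops below DMSO wells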;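 active = AC50 no more than tenfold above the top dose tested, or full inhibition at every dose with a flat fit (cut at about 19 µM in these data); inconclusive = flat curve fit with inhibition between 30% and 70%, or poor fit; inactive = AC50 more than tenfold above the top dose tested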
Outcome field: choose from 1 = active, -1 = inactive

Solved cases below.
CCCCCCC(C)(C)c1ccc([C@@H]2C[C@H](O)CC[C@H]2CCCO)c(O)c1 :: 1
C[C@@H]1O[C@@H](O[C@@H]2C=C3CCC4C(CC[C@]5(C)[C@@H](c6ccc(=O)oc6)CC[C@]45O)[C@@]3(C)CC2)[C@H](O)[C@H](O)[C@H]1O (stereo not given in full) :: 1

In: What did the test return for "O=C(CCC(=O)N1CCN(c2ccc(O)cc2)CC1)c1ccc(Br)cc1" ?
Out: 1

In: What did the test return for "CC(C)c1ccc2c(c1)c(SC(C)(C)C)c(CC(C)(C)C(=O)O)n2Cc1ccc(Cl)cc1" ?
Out: 1

In: What did the test return for "O=C(NC(=S)Nc1ccccc1N1CCCCC1)c1ccc(F)cc1Cl" ?
Out: 1

* * *

# System: HMLE_sh_eGFP viability, CellTiter-Glo luminescence, 72 h
# test.protocol: cytotoxicity in HMLE control line with eGFP shRNA, dose response, counter-screen for HMLE_sh_ECad selective toxicity project, cell-based, HMLE_sh_eGFP, luminescence (AID 463074);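 note: counterscreen control line to flag general toxicity for the HMLE_sh_ECad screen; potency for loss of viability as luminescence drops below DMSO wells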
Activity calls are given as the source filed them.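 The calls were made as follows: active = AC50 no more than tenfold above the top dose tested, or full inhibition at every dose with a flat fit (cut at about 19 µM in these data); inconclusive = flat curve fit with inhibition between 30% and 70%, or poor fit; inactive = AC50 more than tenfold above the top dose tested.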
Outcome field: choose from 1 (yes) (active), 0 (no) (inactive)

Solved cases below.
CCc1cc2cc(C)cc(C)c2nc1SCC(=O)N1CCN(C(=O)c2ccco2)CC1 :: 1 (yes)
O=c1c(Cl)c(NCc2ccc(F)cc2)cnn1C12CC3CC(CC(C3)C1)C2 :: 1 (yes)
Oc1ccc(CCNc2ncnc3ccc(Cl)cc23)cc1 :: 1 (yes)

In: What did the test return for "S=C(NCC1CCCCC1)Nc1ccc(Oc2ccccc2)cc1" ?
Out: 1 (yes)

In: What did the test return for "COC(=O)C1=C(c2cccc(C#N)c2)C[C@@H]2CC[C@H]1N2C(=O)NC1Cc2ccccc2C1" ?
Out: 0 (no)

In: What did the test return for "COc1cccc(Cn2nnc(C(=O)Nc3cc(Cl)ccc3OC)c2N)c1" ?
Out: 1 (yes)

In: What did the test return for "CN(C)S(=O)(=O)Oc1cccc(C(=O)Nc2ccc(Cl)c(Cl)c2)c1" ?
Out: 1 (yes)

In: What did the test return for "O=S(=O)(c1ccc(Cl)cc1)N1CCC(n2cnc3cc(C(F)(F)F)ccc32)CC1" ?
Out: 1 (yes)

In: What did the test return for "Cc1cccc(CN2C(=O)[C@@H]3Cc4c([nH]c5ccccc45)C(C)(C)N3C2=O)c1" ?
Out: 1 (yes)

In: What did the test return for CC1CCCCC1NC(=O)/C(C#N)=C/c1ccccc1F (configuration not stated) ?
Out: 1 (yes)

In: What did the test return for "C=C1C(=O)C=C[C@]2(C)C[C@@H]3OC(=O)[C@](C)(O)[C@H]3C[C@@H]12" ?
Out: 1 (yes)

In: What did the test return for O=C1C2C3C=CC(C3)C2C(=O)N1c1ccc(N2CCN(c3ccccn3)CC2)c([N+](=O)[O-])c1 (configuration not stated) ?
Out: 1 (yes)

In: What did the test return for "O=C(CN1CCCC1)Nc1ccc(Cl)cc1C(=O)c1ccccc1" ?
Out: 1 (yes)

In: What did the test return for "Cc1ccc(/C=N/Nc2cc(C)nc(NCc3ccccc3)n2)cc1" ?
Out: 1 (yes)

In: What did the test return for CC(=O)NC1=C(C#N)C(c2ccccc2)c2c(ccc3ccccc23)O1 (configuration not stated) ?
Out: 1 (yes)

In: What did the test return for "COc1ccccc1-c1cn[nH]c1-c1ccc(OCc2ccccc2F)cc1O" ?
Out: 1 (yes)

In: What did the test return for "CCOC(=O)/C(C#N)=C1\Nc2ccccc2N=C1N(CC(C)C)CC(C)C" ?
Out: 1 (yes)

In: What did the test return for "CC(C)Oc1ccc(C(=O)/C=C2/C(=O)Nc3ccccc32)cc1" ?
Out: 1 (yes)

In: What did the test return for "COc1ccc(N=N/C(=C\O)C(=O)c2cccs2)cc1" ?
Out: 1 (yes)

In: What did the test return for "O=S(=O)(Nc1ccc(-c2csc(-c3ccccc3)n2)cc1)c1ccccc1" ?
Out: 1 (yes)

In: What did the test return for c1ccc(-c2cc3c(NCC4COc5ccccc5O4)ncnc3s2)cc1 (configuration not stated) ?
Out: 1 (yes)

In: What did the test return for "Cc1ccc(NC(=O)c2ccc(Cl)c(N3C(=O)C=CC3=O)c2)cc1" ?
Out: 1 (yes)
